The entries below are paired with their reported log10(IC50).
Tested on: retinoic acid (RA) metabolism
Test: Inhibition of retinoic acid (RA) metabolism in MCF-7 human breast cancer cells
Assay type: cell-based
Settings: MCF7, 3H-RA substrate, Table 1
Quick note: numbers are log10 of IC50, with nM as the unit.

Example cases with answers are listed next.
Query block: Can you look up the measured log10(IC50) of Cn1c(=O)ccc2cc(C(c3cccc(C(F)(F)F)c3)n3cncn3)ccc21 (racemic) [Compound 12] for me?
Result block: 3.93

Query block: What measured log10(IC50) goes with O=c1ccc2cc([C@@H](c3cccc(C(F)(F)F)c3)n3cncn3)ccc2[nH]1 [Compound 2] ?
Result block: 3.59

Query block: For the molecule shown here, Cn1c(=O)ccc2cc(C(F)(c3cccc(C(F)(F)F)c3)n3cncn3)ccc21 (stereo not shown) [Compound 13] , give the reported log10(IC50).
Result block: 1.01

Query block: Param item = O=c1ccc2c(Cl)c(C(c3cccc(C(F)(F)F)c3)n3cncn3)ccc2[nH]1 (stereo not shown) [Compound 10] ; retrieve measured log10(IC50).
Result block: 2.88

Query block: Which measured log10(IC50) value corresponds to Cn1c(=O)ccc2cc(C(C)(c3cccc(C(F)(F)F)c3)n3cncn3)ccc21 (stereo not shown) [Compound 14] ?
Result block: 0.51

Next item in the queue.
Query block: Recorded log10(IC50) for Nn1c(=O)ccc2cc(C(c3cccc(C(F)(F)F)c3)n3cncn3)ccc21 (racemic) [Compound 20] , please?
Result block: 3.17
